So I've got a bunch of variants here, and I need their abundance fitness values.
B1: Chromodomain-helicase-DNA-binding protein 4, residues 365 to 417; numbered along this chain, Q14839 (parent)
chain: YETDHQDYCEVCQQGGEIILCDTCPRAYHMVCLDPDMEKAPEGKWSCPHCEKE

Variants of: B1
assay-notes: abundance fitness (aPCA) (normalised: wild type 0, dead -1); higher = more abundant; growth selection in yeast, the domain comes from the species named
assay-conditions: Homo sapiens
One number for each entry.

Sample records with abundance fitness:
Y1S: 0.108
E38P: -0.143
A40R: -0.178
H5T: 0.349
V11N: 0.223

Give me abundance fitness for each of these variants, listed below.
1. E38D
2. P48I
3. Y28L
4. E17N
5. E38F
6. K44H

1: -0.074; 2: -0.308; 3: -0.073; 4: 0.115; 5: 0.142; 6: -0.3

Give me abundance fitness for each of these variants, listed below.
1. C47K
2. D4N
3. C50N
4. D34T
5. H29Q
6. E10F
7. W45R
8. H49N

-0.81
-0.114
-0.313
-0.047
-0.746
-0.015
-0.162
-0.381

Give me abundance fitness for each of these variants, listed below.
1. V31F
2. G16H

-0.031
-0.12

Give me abundance fitness for each of these variants, listed below.
1. Y1A
2. H49F
3. K44T
4. P41K
5. E42G
6. I18R
7. W45L
8. Q14A

1: 0.534; 2: -0.068; 3: 0.218; 4: -0.015; 5: -0.114; 6: -0.06; 7: -0.218; 8: -0.307

Attribution: the Human Domainome abundance scans (Beltran et al. 2025)
